Here, each record is paired with measured cell viability data.
- System: P12-Ichikawa
- METHOD: cell viability relative to DMSO control; higher = less cytotoxic
- ASSAY SETUP: RPMI 5 mM glucose + 10% FBS; 48 h; 46.1 µM
MEASURED ENDPOINT: cell viability (%)

INSERT INTO measurements (structure, measured_endpoint, recorded_number) VALUES
  ('Cc1ccc(/C=N/NC(=O)c2ccccc2Oc2ccccc2)o1', 'cell viability', 63.9),
  ('C[C@H](Cc1ccc(O)c(O)c1)[C@@H](C)Cc1ccc(O)c(O)c1', 'cell viability', 16.3),
  ('CC[C@@H]1C(=O)N(C)c2cnc(Nc3ccc(C(=O)NC4CCN(C)CC4)cc3OC)nc2N1C1CCCC1', 'cell viability', 4.84),
  ('CC(C)(Sc1ccc(CCN(CCCCC2CCCCC2)C(=O)NC2CCCCC2)cc1)C(=O)O', 'cell viability', 86.2),
  ('NC[C@H]1O[C@H](O[C@H]2[C@H](O)[C@@H](O[C@H]3O[C@H](CO)[C@@H](O)[C@H](N)[C@H]3O)[C@H](N)C[C@@H]2N)[C@H](N)C[C@@H]1O', 'cell viability', 105),
  ('N#C/C(=C1/Nc2ccccc2S1)c1ccnc(OCc2ccc(CN3CCOCC3)cc2)n1', 'cell viability', 33.1),
  ('COc1cc(OC)c(C(=O)CCCN2CCCC2)c(OC)c1', 'cell viability', 111);
